- Protocol notes: MTT cytotoxicity assay
- Format: cell-based
- Assay context: mouse, NIH-3T3 fibroblast cells; MTT, 48 h; three doses (1, 10 and 100 µg/mL); mean ± SD of three determinations; read-out: Cytotoxicity on NIH 3T3-cells (IC50± SD µg/mL)
- Protocol: Cytotoxicity of test compounds on NIH-3T3 fibroblast cells (ATCC, Manassas, VA, USA) was evaluated by using the standard MTT colorimetric assay. […] The extent of MTT reduction to formazan within cells was calculated by measuring the absorbance at 540 nm, using spectrophotometer (Spectra Max plus, Molecular Devices, CA, USA). […]
Readout name: IC50 at 48 h

Return IC50 at 48 h for the following compound: CC1(C)CC[C@]2(C(=O)O)CC[C@]3(C)C(=CC[C@@H]4[C@@]5(C)CC[C@H](O)C(C)(C)[C@@H]5CC[C@]43C)[C@@H]2C1 [Compound 2, 3β-hydroxylolean-12-en-28-oic]
> 100 µg/mL

----------
- Protocol notes: MTT cytotoxicity assay
- Type: cell-based
- Assay context: mouse
Readout name: IC50 at 48 h

Return IC50 at 48 h for the following molecule: CC1(C)CC[C@]2(C(=O)O)CC[C@]3(C)C(=CC[C@@H]4[C@@]5(C)CC[C@H](O)[C@@](C)(CO)[C@@H]5CC[C@]43C)[C@@H]2C1 [Compound 1, 3, 23-dihydroxy-12-oleanen-28-oic acid]
> 100 µg/mL

----------
- Protocol notes: MTT cytotoxicity assay
- Assay type: cell-based
- Assay context: mouse; MTT, 48 h; three doses (1, 10 and 100 µg/mL); mean ± SD of three determinations; read-out: Cytotoxicity on NIH 3T3-cells (IC50± SD µg/mL)
Readout name: IC50

Return IC50 for the following molecule: CC[C@H](/C=C/[C@@H](C)[C@H]1CC[C@H]2[C@@H]3CC=C4C[C@@H](O)CC[C@]4(C)[C@H]3CC[C@]12C)C(C)C [Compound 3, stigmasterol]
> 100 µg/mL
